Assay: Inhibition of bovine retinal PDE6 using fluorescent labeled cGMP as substrate after 15 mins by IMAP assay
pKi: −log10 of the molar value.
Recorded endpoint: pKi

Test smiles	Recorded measurement
CN1C(=O)c2c(nn(Cc3ccc(C(F)(F)F)cc3)c2Nc2ccccc2)N2C1=N[C@@H]1CCC[C@@H]12	5.80

I = CN1C(=O)c2c(nn(Cc3ccc(-c4ccccn4)cc3)c2Nc2ccccc2)N2C1=N[C@@H]1CCC[C@@H]12
II = CN1C(=O)c2c(nn(Cc3ccc(-c4ccccc4)cc3)c2Nc2ccccc2)N2C1=N[C@@H]1CCC[C@@H]12
III = CN1C(=O)c2c(nn(Cc3ccc(C(F)(F)F)nc3)c2Nc2ccccc2)N2C1=N[C@@H]1CCC[C@@H]12
Output the entries ranked by pKi from maximum down to minimum. In plain terms: list the labels in the order you were asked to. I, II, III
(I: 6.37, II: 5.96, III: 5.26)
